Give measured IC50 for each item. Keep answers brief.
Target: human TDO2 (Homo sapiens (Human))
Sequence (P48775 whole entry): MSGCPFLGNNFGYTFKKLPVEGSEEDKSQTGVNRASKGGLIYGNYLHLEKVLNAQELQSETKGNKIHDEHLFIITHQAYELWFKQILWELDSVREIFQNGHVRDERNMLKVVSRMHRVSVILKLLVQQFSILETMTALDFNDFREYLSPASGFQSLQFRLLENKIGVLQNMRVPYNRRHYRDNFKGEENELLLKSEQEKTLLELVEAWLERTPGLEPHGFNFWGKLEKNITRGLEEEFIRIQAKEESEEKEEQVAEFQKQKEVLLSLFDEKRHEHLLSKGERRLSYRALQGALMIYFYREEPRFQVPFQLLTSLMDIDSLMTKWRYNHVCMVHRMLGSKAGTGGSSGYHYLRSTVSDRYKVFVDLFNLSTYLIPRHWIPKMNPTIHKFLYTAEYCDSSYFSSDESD
Test: Assay for TDO2 enzymatic activity determination
Format: biochemical
Settings: human recombinant TDO2, L-Trp 1 mM, kynurenine absorbance at 480 nm
Method: The compounds of formula I inhibit the enzymatic activity of human TDO2. […] To convert N-formylkynurenine into kynurenine, the reaction mixture was incubated at 65° C. for 30 min. […] Kynurenine concentrations were determined by measuring the absorbance at 480 nm. […] The TDO activity was measured as described above using ten serial concentrations of the compounds of the present invention. […]
Give the quantity in nM, number only.

Look up IC50 for this compound: "CN(C)CCNc1ccc(-c2c[nH]c3cc(F)ccc23)cn1"
540

Look up IC50 for this compound: "CC(=O)NCCCNc1ccc(-c2c[nH]c3cc(F)ccc23)cn1"
870

Look up IC50 for this compound: "CS(=O)(=O)CCNc1ccc(-c2c[nH]c3cc(F)ccc23)cn1"
1500

Look up IC50 for this compound: "NCC(=O)NC1CCN(c2ccc(-c3c[nH]c4cc(F)ccc34)cn2)CC1"
1700

Look up IC50 for this compound: "Cc1ncccc1-c1c[nH]c2cc(F)ccc12"
860

Look up IC50 for this compound: "OCCNc1ccc(-c2c[nH]c3cc(F)ccc23)cn1"
490

Look up IC50 for this compound: "Cc1cncc(-c2c[nH]c3cc(F)ccc23)c1"
4500

Look up IC50 for this compound: "CN(C)c1ccc(-c2c[nH]c3cc(F)ccc23)cn1"
380

Look up IC50 for this compound: "NCC(=O)N1CCN(c2ccc(-c3c[nH]c4cc(F)ccc34)cn2)CC1"
650

Look up IC50 for this compound: "Fc1ccc2c(-c3ccc(N4CCOCC4)nc3)c[nH]c2c1"
540

====

target: human TDO2 (Homo sapiens (Human)); assay: Cellular assay for TDO2 activity, A172 cells naturally expressing hTDO2; format: cell-based; conditions: human glioblastoma A172 cells, overnight incubation, kynurenine in supernatant
Give measured pIC50 for each item. Keep answers brief.
For clarity, pIC50 is expressed as the negative log10 of concentration in mol/L.

Look up pIC50 for this compound: Cn1cc(-c2c[nH]c3cc(F)ccc23)ccc1=O [Example 68]
6.32

Look up pIC50 for this compound: NCCS(=O)(=O)NC1CCN(c2ccc(-c3c[nH]c4cc(F)ccc34)cn2)CC1 [Example 55]
6.00

Look up pIC50 for this compound: Cc1nc2cc(-c3c[nH]c4cc(F)ccc34)cnc2o1 [Example 75]
6.30

Look up pIC50 for this compound: CN(CCNS(C)(=O)=O)S(=O)(=O)c1ccc(-c2c[nH]c3cc(F)ccc23)cn1 [Example 91]
6.57

Look up pIC50 for this compound: CC(C)[C@H](N)C(=O)Nc1ccc(-c2c[nH]c3cc(F)ccc23)cn1 [Example 38]
6.13

Look up pIC50 for this compound: O=S(=O)(c1ccc(-c2c[nH]c3ccccc23)cn1)N1CCNCC1 [Example 93]
6.70

Look up pIC50 for this compound: CS(=O)(=O)N1CCC(C(=O)Nc2ccc(-c3c[nH]c4cc(F)ccc34)cn2)CC1 [Example 61]
6.00

Look up pIC50 for this compound: N[C@@H](Cc1ccccc1)C(=O)Nc1ccc(-c2c[nH]c3cc(F)ccc23)cn1 [Example 36]
5.96

Look up pIC50 for this compound: CS(=O)(=O)NC1CCN(c2ccc(-c3c[nH]c4ccc(Cl)cc34)cn2)CC1 [Example 77]
5.55

Look up pIC50 for this compound: NC(=O)Nc1ccc(-c2c[nH]c3cc(F)ccc23)cn1 [Example 63]
6.44

Look up pIC50 for this compound: Fc1ccc2c(-c3cccnc3)c[nH]c2c1 [Example 44, 6-fluoro-3-(pyridin-3-yl)-1H-indole]
6.22

Look up pIC50 for this compound: O=S(=O)(c1ccc(-c2c[nH]c3ccc(F)cc23)cn1)N1CCNCC1 [Example 95]
6.43

Look up pIC50 for this compound: O=C(Nc1ccc(-c2c[nH]c3cc(F)ccc23)cn1)[C@@H]1CCCN1 [Example 58]
6.09

Look up pIC50 for this compound: O=C(Nc1ccc(-c2c[nH]c3cc(F)ccc23)cn1)C1CCNCC1 [Example 35]
6.28

Look up pIC50 for this compound: Cc1ccc2c(-c3ccc(S(=O)(=O)N4CCNCC4)nc3)c[nH]c2c1 [Example 98]
5.85

Look up pIC50 for this compound: O=C(O)Cn1c(=O)[nH]c2cc(-c3c[nH]c4cc(F)ccc34)cnc21 [Example 85]
5.64

Look up pIC50 for this compound: CS(=O)(=O)Nc1ccc(-c2c[nH]c3cc(F)ccc23)cn1 [Example 60]
6.15

Look up pIC50 for this compound: Cc1ccc2[nH]cc(-c3ccc(S(=O)(=O)N4CCNCC4)nc3)c2c1 [Example 96]
6.28
